- System name: BRAF G466V (Homo sapiens, UniProt P15056, G466V)
- Construct: expressed in transfected cells
- Sequence (P15056 whole entry G466V): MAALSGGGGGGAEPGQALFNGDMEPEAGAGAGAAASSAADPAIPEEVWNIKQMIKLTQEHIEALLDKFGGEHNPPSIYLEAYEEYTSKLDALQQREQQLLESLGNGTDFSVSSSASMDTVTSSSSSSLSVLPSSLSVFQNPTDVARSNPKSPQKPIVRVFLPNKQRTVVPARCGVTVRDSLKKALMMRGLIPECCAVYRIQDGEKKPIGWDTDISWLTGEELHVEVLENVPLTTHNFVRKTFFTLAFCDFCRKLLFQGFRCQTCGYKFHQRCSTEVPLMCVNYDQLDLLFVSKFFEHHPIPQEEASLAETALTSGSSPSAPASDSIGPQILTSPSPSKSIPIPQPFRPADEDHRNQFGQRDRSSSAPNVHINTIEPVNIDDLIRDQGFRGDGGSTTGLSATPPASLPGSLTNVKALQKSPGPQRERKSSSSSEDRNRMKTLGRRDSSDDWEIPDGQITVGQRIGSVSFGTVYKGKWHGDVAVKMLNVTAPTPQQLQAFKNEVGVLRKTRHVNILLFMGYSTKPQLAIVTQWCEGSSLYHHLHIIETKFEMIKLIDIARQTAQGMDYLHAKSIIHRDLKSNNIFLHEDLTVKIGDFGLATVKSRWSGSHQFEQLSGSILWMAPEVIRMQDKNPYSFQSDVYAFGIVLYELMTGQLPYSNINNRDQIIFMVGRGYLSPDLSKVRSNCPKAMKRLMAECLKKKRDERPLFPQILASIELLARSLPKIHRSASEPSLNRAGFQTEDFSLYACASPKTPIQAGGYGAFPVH
- Protocol summary: Cellular assay of target protein degradation, T-Rex 293 cells stably transfected with HA-BRAF G466V (HA immunofluorescence, high content imaging)
- Assay type: cell-based
- Test settings: half maximal degradation, T-Rex 293 HA-BRAF G466V; read-out: BRaf G466V DC50
Property name: DC50

DC50 for CCCS(=O)(=O)Nc1ccc(F)c(C(=O)c2c[nH]c3ncc(-c4ccc(N5CC6(CN(CC7CCN(c8cc9c(c(OC)c8)C(=O)N([C@H]8CCC(=O)NC8=O)C9)CC7)C6)C5)cc4)cc23)c1F is < 1 nM

Form: compound = O=C1CCC(N2Cc3cc(C4CCN(CC5CCN(c6ccc(-c7cnc8[nH]cc(C(=O)c9c(Cl)ccc(NS(=O)(=O)N%10CC[C@@H](F)C%10)c9Cl)c8c7)cc6)CC5)CC4)ccc3C2=O)C(=O)N1 (stereo partly drawn) ; DC50 = 1 to 10 nM

DC50 reported for this compound O=C1CC[C@H](N2Cc3cc(OCCCN4CC5(C4)CN(c4ccc(-c6cnc7[nH]cc(C(=O)c8c(F)ccc(NS(=O)(=O)N9CC[C@@H](F)C9)c8F)c7c6)cc4)C5)ccc3C2=O)C(=O)N1 : 1 to 10 nM

The compound identified as O=C1CC[C@H](N2Cc3cc(CC[C@@H](O)CN4CC5(C4)CN(c4ccc(-c6cnc7[nH]cc(C(=O)c8c(F)ccc(NS(=O)(=O)N9CC[C@@H](F)C9)c8F)c7c6)cc4)C5)ccc3C2=O)C(=O)N1 registered its DC50 at 1 to 10 nM

DC50 reading for O=C1CCC(N2Cc3cc(N4CC5(CN(CCOc6ncc(-c7cnc8[nH]cc(C(=O)c9c(F)ccc(NS(=O)(=O)N%10CC[C@@H](F)C%10)c9F)c8c7)cn6)C5)C4)ccc3C2=O)C(=O)N1 (stereo partly drawn) : 1 to 10 nM

So for O=C1CCC(N2Cc3cc(N4CCC(C5CN(c6ccc(-c7cnc8[nH]cc(C(=O)c9c(F)ccc(NS(=O)(=O)N%10CC[C@@H](F)C%10)c9F)c8c7)cc6)C5)CC4)ccc3C2=O)C(=O)N1 (stereo partly drawn) , the logged DC50 turned out to be 1 to 10 nM

// recorded DC50 for CN(CCO)S(=O)(=O)Nc1ccc(F)c(C(=O)c2c[nH]c3ncc(-c4ccc(N5CCC(CN6CCC(c7ccc8c(c7)CN([C@H]7CCC(=O)NC7=O)C8=O)CC6)CC5)cc4)cc23)c1F : 1 to 10 nM

Field DC50 (entry O=C1CC[C@H](N2Cc3cc(N4CCC(CN5CCN(c6ccc(-c7cnc8[nH]cc(C(=O)c9c(F)ccc(NS(=O)(=O)N%10CC[C@@H](F)C%10)c9F)c8c7)cc6)CC5)CC4)ccc3C2=O)C(=O)N1 ) reads 1 to 10 nM

DC50 measured on O=C1CCC(N2Cc3cc(CCCN4CC5(C4)CN(c4ccc(-c6cnc7[nH]cc(C(=O)c8c(F)ccc(NS(=O)(=O)N9CC[C@@H](F)C9)c8F)c7c6)cn4)C5)ccc3C2=O)C(=O)N1 (stereo partly drawn) = 1 to 10 nM

---

For each entry below, report its Dmax value.
- System name: BRAF G466V (Homo sapiens, UniProt P15056, G466V)
- Construct: expressed in transfected cells
- Protocol summary: Cellular assay of target protein degradation, T-Rex 293 cells stably transfected with HA-BRAF G466V (HA immunofluorescence, high content imaging)
- Assay type: cell-based
- Test settings: maximum degradation observed, T-Rex 293 HA-BRAF G466V

Per the record, CNc1cc(-c2cnc3[nH]cc(C(=O)c4c(F)ccc(NS(=O)(=O)N5CC[C@@H](F)C5)c4F)c3c2)ccc1N1CCC(CN2CCC(c3ccc4c(c3)CN([C@H]3CCC(=O)NC3=O)C4=O)CC2)CC1 has Dmax of > 70%

So for O=C1CC[C@H](NC(=O)c2ccc(N3CC4(CN(CC5CCN(c6ccc(-c7cnc8[nH]cc(C(=O)c9c(F)ccc(NS(=O)(=O)N%10CCC(F)(F)C%10)c9F)c8c7)cc6)CC5)C4)C3)cc2F)C(=O)N1 , the logged Dmax turned out to be 35 to 70%

Value of Dmax reported for the compound O=C1CCC(N2Cc3cc(CCCCN4CC5(C4)CN(c4ccc(-c6cnc7[nH]cc(C(=O)c8c(F)ccc(NS(=O)(=O)N9CC[C@@H](F)C9)c8F)c7c6)cc4)C5)ccc3C2=O)C(=O)N1 (some centres unmarked) is > 70%

Per the records, this compound ( O=C1CCC(N2Cc3cc(O[C@H]4C[C@@]5(COCCN5CC5CCN(c6ccc(-c7cnc8[nH]cc(C(=O)c9c(F)ccc(NS(=O)(=O)N%10CC[C@@H](F)C%10)c9F)c8c7)cc6)CC5)C4)ccc3C2=O)C(=O)N1 (some centres unmarked) ) has Dmax equal to 35 to 70%

Value of Dmax reported for the compound O=C1CC[C@@H](N2Cc3cc(N4CCC(OC5CCN(c6ccc(-c7cnc8[nH]cc(C(=O)c9c(F)ccc(NS(=O)(=O)N%10CC[C@@H](F)C%10)c9F)c8c7)cc6)CC5)CC4)ccc3C2=O)C(=O)N1 is > 70%

---

- System name: BRAF V600E (Homo sapiens, UniProt P15056, V600E)
- Construct: expressed in transfected cells
- Sequence (P15056 whole entry V600E): as the sequence (P15056 whole entry G466V) above, with V466G, V600E counted along it
- Protocol summary: Cellular assay of target protein degradation, T-Rex 293 cells stably transfected with HA-BRAF_V600E (HA immunofluorescence, high content imaging)
- Type: cell-based
- Test settings: half maximal degradation, T-Rex 293 HA-BRAF V600E; read-out: BRaf V600E DC50
Property name: DC50

Recorded result, CCCS(=O)(=O)Nc1ccc(F)c(C(=O)c2c[nH]c3ncc(-c4ccc(N5CCC(CN6CCC(c7ccc8c(c7)CN([C@H]7CCC(=O)NC7=O)C8=O)CC6)CC5)cc4)cc23)c1F [Compound 234] , DC50: 5 to 50 nM

# DC50 (molecule: O=C1CCC(N2Cc3cc(CCCOCC4CCN(c5ccc(-c6cnc7[nH]cc(C(=O)c8c(F)ccc(NS(=O)(=O)N9CC[C@@H](F)C9)c8F)c7c6)cc5)CC4)ccc3C2=O)C(=O)N1 (stereo partly drawn) [Compound 294] ) is 50 to 500 nM

The value of DC50 measured for the molecule O=C1CCC(N2Cc3cc(N4CCN(c5cc(N6CCN(c7ccc(-c8cnc9[nH]cc(C(=O)c%10c(F)ccc(NS(=O)(=O)N%11CC[C@@H](F)C%11)c%10F)c9c8)cc7)CC6)ncn5)CC4)ccc3C2=O)C(=O)N1 (stereo partly drawn) [Compound 115] turned out to be 5 to 50 nM

---

- System name: BRAF G466V (Homo sapiens, UniProt P15056, G466V)
- Construct: expressed in transfected cells
- Protocol summary: Cellular assay of target protein degradation, T-Rex 293 cells stably transfected with HA-BRAF G466V (HA immunofluorescence, high content imaging)
- Assay type: cell-based
- Test settings: half maximal degradation, T-Rex 293 HA-BRAF G466V; read-out: BRaf G466V DC50
Field: DC50. Provide a value for each of the molecules that follow.

Entry COc1cc(N2CCC(CN3CCN(c4ccc(-c5cnc6[nH]cc(C(=O)c7c(F)ccc(NS(=O)(=O)N8CC[C@@H](F)C8)c7F)c6c5)cc4)CC3)CC2)ccc1C(=O)NC1CCC(=O)NC1=O (stereo partly drawn) [Compound 358] , tested on BRAF G466V (Homo sapiens, UniProt P15056, G466V), has a reported DC50 of 1 to 10 nM

So the reported DC50 for COc1cc(N2CCN(CC3CCN(c4ccc(-c5cnc6[nH]cc(C(=O)c7c(F)ccc(NS(=O)(=O)N8CC[C@@H](F)C8)c7F)c6c5)cc4)CC3)CC2)ccc1C(=O)NC1CCC(=O)NC1=O (stereo partly drawn) [Compound 360] , on BRAF G466V (Homo sapiens, UniProt P15056, G466V), turned out to be 1 to 10 nM

The recorded DC50 with BRAF G466V (Homo sapiens, UniProt P15056, G466V) for O=C1CCC(N2C(=O)c3ccc(C4CCN(CC5CCN(c6ccc(-c7cnc8[nH]cc(C(=O)c9c(F)ccc(NS(=O)(=O)N%10CC[C@@H](F)C%10)c9F)c8c7)cc6)CC5)CC4)cc3C2=O)C(=O)N1 (stereo partly drawn) [Compound 323] was 10 to 30 nM

---

- System name: BRAF G466V (Homo sapiens, UniProt P15056, G466V)
- Construct: expressed in transfected cells
- Protocol summary: Cellular assay of target protein degradation, T-Rex 293 cells stably transfected with HA-BRAF G466V (HA immunofluorescence, high content imaging)
- Type: cell-based
- Test settings: maximum degradation observed, T-Rex 293 HA-BRAF G466V
Property name: Dmax

Quick note, Dmax for O=C1CC[C@H](N2Cc3cc(N4CC(CN5C[C@@H]6CN(c7ccc(-c8cnc9[nH]cc(C(=O)c%10c(F)ccc(NS(=O)(=O)N%11CC[C@@H](F)C%11)c%10F)c9c8)cc7)C[C@@H]6C5)C4)ccc3C2=O)C(=O)N1 landed at > 70%

compound O=C1CCC(N2Cc3cc(CCCOCC4CCN(c5ccc(-c6cnc7[nH]cc(C(=O)c8c(F)ccc(NS(=O)(=O)N9CC[C@@H](F)C9)c8F)c7c6)cc5)CC4)ccc3C2=O)C(=O)N1 (stereo partly drawn) , Dmax observed: 35 to 70%

Reported Dmax for O=C1CC[C@H](N2Cc3cc(N4CCC(CN5CCN(c6ccc(-c7cnc8[nH]cc(C(=O)c9c(F)ccc(NS(=O)(=O)N%10CC[C@@H](F)C%10)c9F)c8c7)cc6)CC5)CC4)c(F)cc3C2=O)C(=O)N1 was 35 to 70%

Record O=C1CC[C@H](N2Cc3cc([C@@H](O)CCN4CCC(c5ccc(-c6cnc7[nH]cc(C(=O)c8c(F)ccc(NS(=O)(=O)N9CC[C@@H](F)C9)c8F)c7c6)cc5)CC4)ccc3C2=O)C(=O)N1 , field Dmax: > 70%

Form field Dmax, entry O=C1CCC(N2Cc3cc(C4CCN(C[C@H](O)Cc5ccc(-c6cnc7[nH]cc(C(=O)c8c(F)ccc(NS(=O)(=O)N9CC[C@@H](F)C9)c8F)c7c6)cc5)CC4)ccc3C2=O)C(=O)N1 (stereo partly drawn) : > 70%

Summary for this compound, COc1cc(N2CC3(C2)CN(CC2CCN(c4ccc(-c5cnc6[nH]cc(C(=O)c7c(F)ccc(NS(=O)(=O)N8CC[C@@H](F)C8)c7F)c6c5)cc4)CC2)[C@H]3C)cc2c1C(=O)N(C1CCC(=O)NC1=O)C2 (stereo partly drawn) : Dmax is 35 to 70%

Dmax for O=C1CCC(N2Cc3cc(N4CC(CN5CCC(C6(c7ncc(-c8cnc9[nH]cc(C(=O)c%10c(F)ccc(NS(=O)(=O)N%11CC[C@@H](F)C%11)c%10F)c9c8)cn7)CC6)CC5)C4)ccc3C2=O)C(=O)N1 (stereo partly drawn) is > 70%

COc1cc(N2CC3(CC(CN4CCN(c5ccc(-c6cnc7[nH]cc(C(=O)c8c(F)ccc(NS(=O)(=O)N9CC[C@@H](F)C9)c8F)c7c6)cc5)CC4)C3)C2)cc2c1C(=O)N(C1CCC(=O)NC1=O)C2 (stereo partly drawn) has a reported Dmax of > 70%

Input COc1cc([C@@H](O)CCN2CCN(c3ccc(-c4cnc5[nH]cc(C(=O)c6c(F)ccc(NS(=O)(=O)N7CC[C@@H](F)C7)c6F)c5c4)cc3)CC2)cc2c1C(=O)N([C@H]1CCC(=O)NC1=O)C2 (stereo in doubt) . Output Dmax: 35 to 70%
